# Measured target: Hypoxia-inducible factor 1-alpha (Homo sapiens)
# Assay summary: activators of HIF1alpha nuclear accumulation, confirmation, imaging, fluorescence, U2OS GFP-HIF1alpha (AID 434951)
# Assay context: U2OS GFP-HIF1alpha nuclear intensity, high-content imaging
The source made the active and inactive calls.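 How the source made its calls: active means a fitted half-maximal concentration EC50 for the rise in nuclear signal no higher than ten times the top dose tested; inconclusive means flat fit with activity between 30% and 70%, or unusable fit; inactive means EC50 beyond ten times the top dose.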
Possible outcomes: 1.0 = active, 0.0 = inactive

Compound: COc1ccc(C(=O)N2CCCCCC2)cc1S(=O)(=O)N1CCOCC1
Measured target: Hypoxia-inducible factor 1-alpha (Homo sapiens)
Group: 0.0

Compound: O=C(CSC1c2ccccc2-c2ccccc21)N/N=C/c1ccccc1O
Measured target: Hypoxia-inducible factor 1-alpha (Homo sapiens)
Group: 1.0

Compound: CCCC(=O)NC(c1ccc(Cl)cc1Cl)c1ccc2cccnc2c1O (stereo unspecified)
Measured target: Hypoxia-inducible factor 1-alpha (Homo sapiens)
Group: 1.0

Compound: O=C(CS(=O)(=O)c1ccccc1)Nc1ccc(N2CCOCC2)cc1
Measured target: Hypoxia-inducible factor 1-alpha (Homo sapiens)
Group: 0.0

Compound: O=C(N/N=C(\c1ccccc1)c1cccnc1)c1cccc(F)c1
Measured target: Hypoxia-inducible factor 1-alpha (Homo sapiens)
Group: 1.0

Compound: Oc1ccc(Br)cc1/C=N/Nc1ccccn1
Measured target: Hypoxia-inducible factor 1-alpha (Homo sapiens)
Group: 1.0

Compound: COc1ccc2oc(=O)c(C(=O)NC3CCCCCC3)cc2c1
Measured target: Hypoxia-inducible factor 1-alpha (Homo sapiens)
Group: 0.0

Compound: CCN(CC(=O)Nc1ccc2c(c1)OCCO2)CC(=O)Nc1ccc2c(c1)OCO2
Measured target: Hypoxia-inducible factor 1-alpha (Homo sapiens)
Group: 0.0

Compound: CCN(CC)CCC(=O)Nc1cccc2c1C(=O)c1ccccc1C2=O
Measured target: Hypoxia-inducible factor 1-alpha (Homo sapiens)
Group: 0.0

Compound: O=C(NCCSc1c[nH]c2ccccc12)c1ccc(Br)o1
Measured target: Hypoxia-inducible factor 1-alpha (Homo sapiens)
Group: 0.0

Compound: CCC1CCCCN1CCCNC(=O)C1CCN(c2nnc(-n3cccc3)s2)CC1 (stereo unspecified)
Measured target: Hypoxia-inducible factor 1-alpha (Homo sapiens)
Group: 0.0

Compound: CCOc1ccc(-c2c(C(=O)N/N=C/c3cccnc3)nnn2-c2nonc2N)cc1
Measured target: Hypoxia-inducible factor 1-alpha (Homo sapiens)
Group: 0.0

Compound: O=C(NCC(=O)N(Cc1ccco1)C(C(=O)NC1CCCCC1)c1cccnc1)c1cccs1 (stereo unspecified)
Measured target: Hypoxia-inducible factor 1-alpha (Homo sapiens)
Group: 0.0

Compound: CCOC(=O)c1ccc(S(=O)(=O)NNC(=O)COc2ccccc2C)cc1
Measured target: Hypoxia-inducible factor 1-alpha (Homo sapiens)
Group: 0.0

Compound: Cc1nc2cc(-c3ccccc3)sc2c(=O)n1N
Measured target: Hypoxia-inducible factor 1-alpha (Homo sapiens)
Group: 0.0

Compound: CCOC(=O)c1c(S(=O)(=O)NCc2ccc(C)o2)c(C)n(C)c1C
Measured target: Hypoxia-inducible factor 1-alpha (Homo sapiens)
Group: 0.0

Compound: CC(=O)Nc1c([N+](=O)[O-])cc(C)c(Cl)c1[N+](=O)[O-]
Measured target: Hypoxia-inducible factor 1-alpha (Homo sapiens)
Group: 0.0

Compound: Oc1[nH]c2ccccc2c1N=NC(=S)N1CCOCC1
Measured target: Hypoxia-inducible factor 1-alpha (Homo sapiens)
Group: 1.0

Compound: COC(=O)Cc1ccc(NC(=S)NC(C)(C)C)cc1
Measured target: Hypoxia-inducible factor 1-alpha (Homo sapiens)
Group: 0.0

Compound: Cn1c(CCNC(=O)c2ccco2)nc2cc(NC(=O)C3CCCCC3)ccc21
Measured target: Hypoxia-inducible factor 1-alpha (Homo sapiens)
Group: 0.0

Compound: COc1cc2ccccc2cc1C(=O)Nc1ccc(C)cc1
Measured target: Hypoxia-inducible factor 1-alpha (Homo sapiens)
Group: 0.0

Compound: COc1ccc(CN2CCNC(=O)C2CC(=O)N(C)CC2CCOCC2)cc1OC (stereo unspecified)
Measured target: Hypoxia-inducible factor 1-alpha (Homo sapiens)
Group: 0.0

Compound: C/C(=N\NC(=O)c1nnn(-c2nonc2N)c1-c1ccccc1)c1ccccc1O
Measured target: Hypoxia-inducible factor 1-alpha (Homo sapiens)
Group: 1.0

Compound: N#CCC(=O)N/N=C/c1ccc(SCC(=O)Nc2ccccc2)o1
Measured target: Hypoxia-inducible factor 1-alpha (Homo sapiens)
Group: 0.0

Compound: COc1ccc2nc(NC(=O)c3cccs3)sc2c1
Measured target: Hypoxia-inducible factor 1-alpha (Homo sapiens)
Group: 0.0

Compound: COc1ccc(S(=O)(=O)N2CCC(c3cc(-c4cccc5ccccc45)n[nH]3)CC2)cc1
Measured target: Hypoxia-inducible factor 1-alpha (Homo sapiens)
Group: 0.0

Compound: CCN(CC)c1ccc(/C=N/NC(=O)c2c(Cl)cnn2C)c(O)c1
Measured target: Hypoxia-inducible factor 1-alpha (Homo sapiens)
Group: 1.0

Compound: CCOc1nc(Nc2ccc(OC)cc2)nc(OCC)n1
Measured target: Hypoxia-inducible factor 1-alpha (Homo sapiens)
Group: 0.0

Compound: COc1ccc(NC(=O)CSc2nc3c(c(=O)[nH]2)CCC3)cc1OC
Measured target: Hypoxia-inducible factor 1-alpha (Homo sapiens)
Group: 0.0

Compound: COC(=O)Nc1ccc(=O)n(Cc2c(Cl)cccc2Cl)c1
Measured target: Hypoxia-inducible factor 1-alpha (Homo sapiens)
Group: 0.0

Compound: O=[N+]([O-])c1cccnc1N/N=C/c1ccccc1O
Measured target: Hypoxia-inducible factor 1-alpha (Homo sapiens)
Group: 1.0

Compound: CCOC(=O)c1[nH]cnc1N=Nc1c(O)ccc2ccccc12
Measured target: Hypoxia-inducible factor 1-alpha (Homo sapiens)
Group: 1.0

Compound: Cc1ccc(-c2cc(C(F)(F)F)n3nc(C(=O)Nc4c(C)n(C)n(-c5ccccc5)c4=O)cc3n2)cc1
Measured target: Hypoxia-inducible factor 1-alpha (Homo sapiens)
Group: 0.0

Compound: Cc1noc(C(=O)Nc2sc3c(c2C#N)CCC3)c1Cl
Measured target: Hypoxia-inducible factor 1-alpha (Homo sapiens)
Group: 0.0

Compound: Cn1c(CC(=O)Nc2ccccc2)cc2ccccc21
Measured target: Hypoxia-inducible factor 1-alpha (Homo sapiens)
Group: 0.0

Compound: O=C(Cn1c(SCC(=O)N2CCCc3ccccc32)nc2ccccc21)N1CCCC1
Measured target: Hypoxia-inducible factor 1-alpha (Homo sapiens)
Group: 0.0

Compound: COc1ccc(-c2cn3nc(SCC(=O)NCC4CCCO4)ccc3n2)cc1 (stereo unspecified)
Measured target: Hypoxia-inducible factor 1-alpha (Homo sapiens)
Group: 0.0

Compound: CC(C)=NOC(=O)c1c(C)noc1-c1snnc1C
Measured target: Hypoxia-inducible factor 1-alpha (Homo sapiens)
Group: 0.0

Compound: Cc1ccc(C)c(OCC(=O)O/N=C(\N)c2cccc([N+](=O)[O-])c2)c1
Measured target: Hypoxia-inducible factor 1-alpha (Homo sapiens)
Group: 0.0

Compound: COc1cccc(/C=N/Nc2cc(-n3nc(C)cc3-c3ccccc3)ncn2)c1O
Measured target: Hypoxia-inducible factor 1-alpha (Homo sapiens)
Group: 1.0

Compound: COc1ccc(N2CCN(c3ccc(N4C(=O)CC(C)C4=O)cc3[N+](=O)[O-])CC2)cc1 (stereo unspecified)
Measured target: Hypoxia-inducible factor 1-alpha (Homo sapiens)
Group: 0.0

Compound: CCN(CCCCCN(C)C)Cc1cc2ccccc2o1
Measured target: Hypoxia-inducible factor 1-alpha (Homo sapiens)
Group: 0.0

Compound: S=C(N/N=C/c1cccc2ccccc12)Nc1cccc(Cl)c1
Measured target: Hypoxia-inducible factor 1-alpha (Homo sapiens)
Group: 1.0

Compound: CCOC(=O)C(NC(C)=O)(N1CCOCC1)C(F)(F)F (stereo unspecified)
Measured target: Hypoxia-inducible factor 1-alpha (Homo sapiens)
Group: 0.0

Compound: COc1ccc(NC(=O)Nc2ccc(Br)cn2)cc1
Measured target: Hypoxia-inducible factor 1-alpha (Homo sapiens)
Group: 0.0

Compound: CCn1ccnc1C(O)c1ccccc1OC (stereo unspecified)
Measured target: Hypoxia-inducible factor 1-alpha (Homo sapiens)
Group: 0.0

* * *

# Measured target: Hypoxia-inducible factor 1-alpha (Homo sapiens) (UniProt Q16665)
# Sequence (Q16665 whole entry, looked up): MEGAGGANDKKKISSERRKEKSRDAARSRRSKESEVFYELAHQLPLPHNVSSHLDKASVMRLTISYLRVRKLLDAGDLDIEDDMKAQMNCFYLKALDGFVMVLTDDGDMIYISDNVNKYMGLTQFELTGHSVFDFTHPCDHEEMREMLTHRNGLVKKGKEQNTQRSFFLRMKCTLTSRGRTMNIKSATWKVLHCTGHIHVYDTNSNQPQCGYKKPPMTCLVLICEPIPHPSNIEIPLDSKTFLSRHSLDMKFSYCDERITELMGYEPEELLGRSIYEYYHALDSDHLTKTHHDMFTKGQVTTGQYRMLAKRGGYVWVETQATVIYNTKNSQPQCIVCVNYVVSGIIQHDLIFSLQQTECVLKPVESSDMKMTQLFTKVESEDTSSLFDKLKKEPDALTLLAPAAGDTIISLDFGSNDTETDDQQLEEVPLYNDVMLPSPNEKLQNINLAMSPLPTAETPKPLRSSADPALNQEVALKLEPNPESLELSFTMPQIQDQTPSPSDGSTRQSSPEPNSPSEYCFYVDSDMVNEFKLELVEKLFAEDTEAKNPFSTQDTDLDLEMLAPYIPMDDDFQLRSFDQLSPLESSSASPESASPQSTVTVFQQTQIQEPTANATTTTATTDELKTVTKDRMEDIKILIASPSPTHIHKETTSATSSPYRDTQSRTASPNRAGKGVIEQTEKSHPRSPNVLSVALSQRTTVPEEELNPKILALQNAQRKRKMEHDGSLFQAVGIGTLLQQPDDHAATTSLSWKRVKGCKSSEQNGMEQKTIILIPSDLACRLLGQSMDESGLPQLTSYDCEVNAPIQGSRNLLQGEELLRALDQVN
# Assay summary: activators of HIF1alpha nuclear accumulation, confirmation, imaging, fluorescence, U2OS GFP-HIF1alpha (AID 434951)
# Assay context: U2OS GFP-HIF1alpha nuclear intensity, high-content imaging
Calls of active or inactive are those of the source.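 The calls were made as follows: active = a fitted half-maximal concentration EC50 for the rise in nuclear signal no higher than ten times the top dose tested; inconclusive = flat fit with activity between 30% and 70%, or unusable fit; inactive = EC50 beyond ten times the top dose.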
Labels: active, inactive

Compound smiles: O=C(CN1CCCc2ccccc21)N/N=C/c1c(O)ccc2ccccc12
Group: active

Compound smiles: CCCOc1ccc(/C=N/NC(=O)CSc2ccccn2)cc1OC
Group: inactive

Compound smiles: COCc1nnc(NC(=O)c2cc(Cl)ccc2OC)s1
Group: inactive

Compound smiles: Cc1ccc(CN2[C@@H](CC(C)C)COCCS2(=O)=O)cc1
Group: inactive

Compound smiles: CCN(CC)c1ccc(/C=N/NC(=O)c2ccco2)c(O)c1
Group: active

Compound smiles: COc1ccc(C/C(C)=N/NS(=O)(=O)c2ccc(Br)cc2)cc1
Group: inactive

Compound smiles: CCc1ccc(C2C(=O)c3ccccc3C2=O)cc1
Group: inactive

Compound smiles: Cc1cc(N/C=C/C(=O)c2ccc(Br)cc2)no1
Group: inactive

Compound smiles: COc1ccc(NC(=S)N2CCN(C(=O)c3ccccc3)CC2)cc1
Group: inactive

Compound smiles: CCCCn1c(=O)[nH]c(=O)c2c(C(=O)OCC)cc(-c3cccs3)nc21
Group: inactive

Compound smiles: C/C(=N\NC(=O)c1cc(-c2cccnc2)nc2ccccc12)c1ccccc1O
Group: active
